# STUDY_SYSTEM: T1, rat APJ receptor (rat, UniProt Q9JHG3 1-377)
# T1 sequence (looked up): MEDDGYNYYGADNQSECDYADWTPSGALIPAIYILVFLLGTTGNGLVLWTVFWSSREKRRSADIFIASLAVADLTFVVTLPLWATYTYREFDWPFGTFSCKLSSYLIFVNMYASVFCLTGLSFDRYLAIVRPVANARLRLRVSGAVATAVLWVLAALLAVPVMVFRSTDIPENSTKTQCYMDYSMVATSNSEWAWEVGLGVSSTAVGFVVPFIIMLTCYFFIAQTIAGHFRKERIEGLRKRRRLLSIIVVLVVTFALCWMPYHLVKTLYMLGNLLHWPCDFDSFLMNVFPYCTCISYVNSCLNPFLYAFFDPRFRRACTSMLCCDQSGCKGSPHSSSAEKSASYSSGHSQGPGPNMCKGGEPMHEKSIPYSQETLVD
# TEST_PROTOCOL: cell-based or functional assay
Starred links: 1 amine or outer side, 2 acyl side, 3 side chain; linkers in the order of their positions; H or OH if unused. Non-standard residues stand in square brackets, D forms with d. *: point of attachment. Oic = O=C(O)[C@@H]1C[C@@H]2CCCC[C@@H]2N1; Phe(4-Cl) = N[C@@H](Cc1ccc(Cl)cc1)C(=O)O; γGlu = O=C(O)[C@H](CCC(=O)[*:2])N[*:1]; NMehArg = CN[C@@H](CCCCNC(=N)N)C(=O)O; NMeR = CN[C@@H](CCCNC(=N)N)C(=O)O; Palmitoyl = CCCCCCCCCCCCCCCC(=O)*; hArg = N=C(N)NCCCC[C@H](N)C(=O)O; Cha = N[C@@H](CC1CCCCC1)C(=O)O; αMeL = CC(C)C[C@](C)(N)C(=O)O; β3hP = O=C(O)C[C@@H]1CCCN1; Nle = CCCC[C@H](N)C(=O)O; AEEA = NCCOCCOCC(=O)O; Aib = CC(C)(N)C(=O)O; Mpa = O=C(O)CCS
Measured EC50 Rat APJ Receptor, listed per entry.
VALUE_TYPE: EC50 Rat APJ Receptor (nM)

{"BINDER": "{10K mPEG acetamide}-[Mpa]QRP[NMeR][Cha]SHKG[Oic][Nle][Aib][Phe(4-Cl)]-OH [SEQ ID NO: 120]", "ENDPOINT_RESULT": 258}
{"BINDER": "QRPRXSHKGPXXF ({Acetyl-NH}qRP[NMeArg][Cha]SHKG[aMePro][Nle][Aib][4-Cl-F]{COOH}) [SEQ ID NO: 93]", "ENDPOINT_RESULT": 0.79}
{"BINDER": "H-KFRRQRPRLSHKGPMP-OH [SEQ ID NO: 12]", "ENDPOINT_RESULT": 5.81}
{"BINDER": "XXXQRPRLSHKGPXPF ({hexanoyl}[AC4Abu][Aeea][Aeea]Q[NMehArg]P[NMeArg][aMeLeu]SHKGP[Nle]P[4-Cl-F]{COOH}) [SEQ ID NO: 561]", "ENDPOINT_RESULT": 5.94}
{"BINDER": "Palmitoyl-[γGlu][AEEA][AEEA][dQ]RP[NMeR][αMeL]SHKG[Oic][Nle][β3hP][Phe(4-Cl)]-OH (not fully specified (residue 10)) [SEQ ID NO: 631]", "ENDPOINT_RESULT": 0.699}
{"BINDER": "Ac-Q[hArg][NMehArg]LSHKGP[Nle]P[Phe(4-Cl)]-OH (SMILES CCCC[C@H](NC(=O)[C@@H]1CCCN1C(=O)CNC(=O)[C@H](CCCCN)NC(=O)[C@H](Cc1c[nH]cn1)NC(=O)[C@H](CO)NC(=O)[C@H](CC(C)C)NC(=O)[C@H](CCCCNC(=N)N)N(C)C(=O)[C@H](CCCCNC(=N)N)NC(=O)[C@H](CCC(N)=O)NC(C)=O)C(=O)N1CCC[C@H]1C(=O)N[C@@H](Cc1ccc(Cl)cc1)C(=O)O) [SEQ ID NO: 74]", "ENDPOINT_RESULT": 17.3}
